study system: Protein mono-ADP-ribosyltransferase TIPARP (Homo sapiens) (UniProt Q7Z3E1)
Sequence (Q7Z3E1 whole entry): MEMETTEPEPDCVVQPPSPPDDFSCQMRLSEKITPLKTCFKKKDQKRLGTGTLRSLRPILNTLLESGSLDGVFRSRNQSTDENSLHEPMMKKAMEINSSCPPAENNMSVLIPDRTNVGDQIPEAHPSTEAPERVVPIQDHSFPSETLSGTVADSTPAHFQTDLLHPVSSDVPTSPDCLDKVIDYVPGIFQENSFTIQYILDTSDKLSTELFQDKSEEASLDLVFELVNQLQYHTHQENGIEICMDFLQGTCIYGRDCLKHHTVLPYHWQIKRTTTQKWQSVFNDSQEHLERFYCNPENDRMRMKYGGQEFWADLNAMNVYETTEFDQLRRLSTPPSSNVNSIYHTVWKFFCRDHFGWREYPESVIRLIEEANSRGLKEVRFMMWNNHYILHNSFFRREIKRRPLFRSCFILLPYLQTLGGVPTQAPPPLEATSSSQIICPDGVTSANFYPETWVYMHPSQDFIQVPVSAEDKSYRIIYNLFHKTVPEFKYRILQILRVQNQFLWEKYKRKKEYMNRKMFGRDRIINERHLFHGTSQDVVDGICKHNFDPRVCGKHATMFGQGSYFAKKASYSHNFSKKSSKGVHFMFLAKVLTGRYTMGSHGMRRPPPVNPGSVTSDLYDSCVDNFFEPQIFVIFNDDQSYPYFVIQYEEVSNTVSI
experimental protocol: Inhibition of PARP7 (unknown origin) at 100 nM measured after 1 hr incubation by microplate reader assay relative to control
Below, each entry is listed with its recorded inhibition.

# NC(=O)c1cccc2cn(C(F)C(=O)N3CCN(c4ncc(C(F)(F)F)cn4)CC3)nc12 (stereo not given) with Protein mono-ADP-ribosyltransferase TIPARP (Homo sapiens) (UniProt Q7Z3E1): inhibition is 63%

# CC(C(=O)N1CCN(c2ncccn2)CC1)n1cc2cccc(C(N)=O)c2n1 (stereo not given) with Protein mono-ADP-ribosyltransferase TIPARP (Homo sapiens) (UniProt Q7Z3E1): inhibition is 19.7%

# CC(C(=O)N1CCN(c2ncc(Br)cn2)CC1)n1cc2cccc(C(N)=O)c2n1 (stereo not given) with Protein mono-ADP-ribosyltransferase TIPARP (Homo sapiens) (UniProt Q7Z3E1): inhibition is 85.6%

# CC(C(=O)N1CCN(c2ccc(C(F)(F)F)cn2)CC1)n1cc2cccc(C(N)=O)c2n1 (stereo not given) with Protein mono-ADP-ribosyltransferase TIPARP (Homo sapiens) (UniProt Q7Z3E1): inhibition is 91.2%

# NC(=O)c1cccc2cn(CC(=O)N3CCN(c4ccc5c(c4)OC(F)(F)O5)CC3)nc12 with Protein mono-ADP-ribosyltransferase TIPARP (Homo sapiens) (UniProt Q7Z3E1): inhibition is 17.5%

Next:
# CC(C(=O)N1CCN(c2ccc3c(c2)OC(F)(F)O3)CC1)n1cc2cccc(C(N)=O)c2n1 (stereo not given) with Protein mono-ADP-ribosyltransferase TIPARP (Homo sapiens) (UniProt Q7Z3E1): inhibition is 13%

# CC(C(=O)N1CCN(c2ncc(S(C)(=O)=O)cn2)CC1)n1cc2cccc(C(N)=O)c2n1 (stereo not given) with Protein mono-ADP-ribosyltransferase TIPARP (Homo sapiens) (UniProt Q7Z3E1): inhibition is 25.6%

# CC(C(=O)N1CCN(c2ncc(F)cn2)CC1)n1cc2cccc(C(N)=O)c2n1 (stereo not given) with Protein mono-ADP-ribosyltransferase TIPARP (Homo sapiens) (UniProt Q7Z3E1): inhibition is 64.5%

# CCC(C(=O)N1CCN(c2ncc(C(F)(F)F)cn2)CC1)n1cc2cccc(C(N)=O)c2n1 (stereo not given) with Protein mono-ADP-ribosyltransferase TIPARP (Homo sapiens) (UniProt Q7Z3E1): inhibition is 63%

Origin of measurements: ChEMBL document CHEMBL5537136
